Source listed as ChEMBL document CHEMBL2407030.

- Tgt: Neuronal acetylcholine receptor; alpha3/beta4 (Homo sapiens, UniProt P30926+P32297)
- Protocol Text: Agonist activity at human alpha3beta4 nACHR expressed in CHO cell membranes assessed as stimulation of calcium flux by FLIPR assay relative to control
- Assay type: cell-based
Measurement Label: Emax
Could you give the number and then its unit, please?

May I ask what Emax has been recorded for "CCCNC(=O)[C@H]1C[C@@H]2CNC[C@@H](C2)C1" ?
24%

May I ask what Emax has been recorded for O=C(C1CC1)[C@H]1C[C@H]2CNC[C@H]2C1 (mixture of isomers) ?
130%

May I ask what Emax has been recorded for "CC(C)NC(=O)[C@H]1C[C@@H]2CNC[C@@H](C2)C1" ?
25%

May I ask what Emax has been recorded for O=C(c1ccco1)[C@H]1C[C@H]2CNC[C@H]2C1 (mixture of isomers) ?
40%

May I ask what Emax has been recorded for C[C@H]1C[C@@H]1C(=O)N1CC2CNCC(C2)C1 (mixture of isomers) ?
89%
